All figures here come from patent US20150376269A1.

# systemTested: T1, serum resistance-associated protein (SRA) from Trypanosoma brucei rhodesiense, recombinant SRA (SEQ ID NO: … (Trypanosoma brucei rhodesiense, UniProt O96637 31-274))
# T1 construct: also called SRA protein
# T1 sequence: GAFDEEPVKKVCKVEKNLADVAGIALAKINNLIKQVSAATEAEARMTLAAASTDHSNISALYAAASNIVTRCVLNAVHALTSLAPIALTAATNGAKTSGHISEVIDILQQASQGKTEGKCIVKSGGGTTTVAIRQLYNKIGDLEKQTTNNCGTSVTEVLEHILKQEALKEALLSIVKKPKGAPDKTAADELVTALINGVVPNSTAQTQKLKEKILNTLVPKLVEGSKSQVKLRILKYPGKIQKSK
# assayProcedure: SPR, mAb captured, 25C, pH 7.4
attributeMeasured: kon (M⁻¹ s⁻¹)
The answer is to be given in M⁻¹ s⁻¹; state only the numeric part.

H1H10067P (antibody, V domains shown, Fully human antibody with human IgG1 Fc (prefix H1H)) VH: QVQLQESGPGLVKPSQTLSLTCIVSGGSISSGDYYWNWIRQHPGKGLEWIGDIYHSGDTYYNPSLKSRVTISLDTSKNQFSLKLSSLTAADTAVYYCARDRIVATGGGMDVWGQGTTVTVSS VL: DIQMTQSPSTLSASVGDRVTITCRASQSISSWLAWYQRKPGKAPNLLIYRSSSLESGVPSRFSGSGSGTEFTLTISSLQADDFVIYYCQQYNSYPYTFGQGTKLEIK
897000

Field: next binder
// kon lookup, binder = H1H10041P (antibody, V domains shown, Fully human antibody with human IgG1 Fc (prefix H1H)) VH: QVQLVQSGAEVRKPGSSMKVSCATSGGNFRSYTINWVRQAPGQGLEWMGGVFPAVGTRIYAQKFQGRVTISTDESTTIAYMELNSLVPEDTAVYYCARSFNSPFDFWDQGTLVTVSS VL: AIQMTQSPSSLSASVGDRVTLTCRASQDIRNDLHWFQQTPGKAPRLLIYSASNLQSGVPSRFSGTGSGTDFTLTFSSLQPEDFATYYCLQDYSYPYTFGQGTKLEIK , result: 1.8e+06
